Test system: A549-ACTB-RAB5A
Experiment: phenotypically active (imaging signature differs from DMSO and reproducible) at any of 0.3-9 uM (binary (1 = active, 0 = inactive)); higher = active
Settings: treatment time: 24 h
Outcomes: active, inactive

> print(dat)
                                    compound    tested.system  group.label
 1  c1ccc2c(c1)Cc1c(Nc3ccc4c(c3)OCCO4)n[nH]c1-2  A549-ACTB-RAB5A       active
 2  C[C@@H]1O[C@@H](O[C@H]2C(=O)c3c(O)cc(O)cc3O[C@@H]2c2ccc(O)c(O)c2)[C@H](O)[C@H](O)[C@H]1O [Astilbin]  A549-ACTB-RAB5A     inactive
 3        Cc1[nH]c2ccccc2c1CCNC(=O)c1ccccc1F  A549-ACTB-RAB5A     inactive
 4  O=C1N(c2ccccc2)c2ccccc2C1(Cc1ccncc1)Cc1ccncc1 [linopirdine]  A549-ACTB-RAB5A     inactive
 5  CNCC[C@@H](Oc1ccccc1C)c1ccccc1 [atomoxetine]  A549-ACTB-RAB5A     inactive
 6  NC(=O)C(c1ccccc1)(c1ccccc1)[C@@H]1CCN(CCc2ccc3c(c2)CCO3)C1 [darifenacin]  A549-ACTB-RAB5A       active
 7            CCN1/C(=C/C(C)=O)Sc2ccc(O)cc21  A549-ACTB-RAB5A       active
 8  O=c1ncccn1[C@@H]1O[C@H](CO)[C@@H](O)[C@H]1O [Zebularine]  A549-ACTB-RAB5A     inactive
 9  O=C(CCc1ccc(O)cc1)c1c(O)cc(O)cc1O[C@@H]1O[C@H](CO)[C@@H](O)[C@H](O)[C@H]1O [Phloridzin]  A549-ACTB-RAB5A     inactive
10   CC(C)(C)n1nc(-c2ccc(Cl)cc2)c2c(N)ncnc21  A549-ACTB-RAB5A       active
11  CC[N+](CC)(CC)CCOc1cccc(OCC[N+](CC)(CC)CC)c1OCC[N+](CC)(CC)CC [gallamine-triethiodide]  A549-ACTB-RAB5A     inactive
12  C[N+](C)(C)CC[N+]1(C)Cc2c(Cl)c(Cl)c(Cl)c(Cl)c2C1 [Chlorisondamine diiodide]  A549-ACTB-RAB5A     inactive
13  C/C=C1/[C@H]2C=C(C)C[C@]1(N)c1ccc(=O)[nH]c1C2 [Huperzine A]  A549-ACTB-RAB5A     inactive
14  C=C1C[C@]23C[C@@]1(O)CC[C@H]2[C@@]12C=C[C@H](O)[C@](C)(C(=O)O1)[C@H]2[C@@H]3C(=O)O [Gibberellic acid]  A549-ACTB-RAB5A     inactive
15  CC(C)(C)NC[C@H](O)COc1cccc2c1CCCC2=O [levobunolol]  A549-ACTB-RAB5A     inactive
16  Oc1cc(O)c2c(c1)O[C@H](c1ccc(O)c(O)c1)[C@@H](O)C2 [Epicatechin-(-)]  A549-ACTB-RAB5A     inactive
17  O=C(c1cccc(Cl)c1F)N1CCN(Cc2cccc(Nc3nccs3)n2)CC1  A549-ACTB-RAB5A       active
18      N=C(N)NC(=N)NCCc1ccccc1 [phenformin]  A549-ACTB-RAB5A     inactive

* * *

Tested on: HepG2-CANX-COX4
Assay: phenotypically active (imaging signature differs from DMSO and reproducible) at any of 0.3-9 uM (binary (1 = active, 0 = inactive)); higher = active
Conditions: treatment time: 24 h
Where a name gives a salt, the structure may show the parent alone.
Outcome codes: class 1 = active, class 0 = inactive

> print(dat)
                                   compound  group.label
1  OC(CCN1CCCCC1)(c1ccccc1)C1CC2C=CC1C2 (stereo not drawn)      class 0
2  COc1cc2ncn(-c3cc(OCc4ccccc4C(F)(F)F)c(C(N)=O)s3)c2cc1OC      class 1
3  CC(C)[C@](O)(c1ccc2cc(OC(F)F)c(OC(F)F)cc2c1)c1c[nH]nn1      class 0
4   O=C1N=C(NCc2cccs2)S/C1=C\c1ccc2ncccc2c1      class 1
5  CO[C@@H]1[C@H](N(C)C(=O)c2ccccc2)C[C@H]2O[C@]1(C)n1c3ccccc3c3c4c(c5c6ccccc6n2c5c31)C(=O)NC4      class 1
6  C[C@@H]1CN(Cc2ccc(F)cc2)[C@@H](C)CN1C(=O)c1cc2c(C(=O)C(=O)N(C)C)cn(C)c2cc1Cl [SCIO 469 hydrochloride]      class 1
7  CCCCc1oc2ccc(NS(C)(=O)=O)cc2c1C(=O)c1ccc(OCCCN(CCCC)CCCC)cc1      class 0
8  CC(C(=O)O)c1cccc(C(=O)c2ccccc2)c1 (stereo not drawn)      class 0
